Ref: patent US10105357B2

test system: A375 (Amelanotic Melanoma); test: Cell viability analysis, skin cancer A375; format: cell-based, human; settings: Homo sapiens, A-375; drug 10 μM, 72 hours, WST-1, OD450 nm; read-out: cell viability (survival rate), A375
What viability at 10 µM was measured for each of the following?
Express the result in % but write the number alone.

Provide A375 (Amelanotic Melanoma) viability at 10 µM reading for COC(=O)C1=CO[C@@H](O[C@@H]2O[C@H](CO)[C@@H](O)[C@H](O)[C@H]2O)[C@@H]2C(CO)=CC[C@H]12 [Geniposide] . 73.4

Provide A375 (Amelanotic Melanoma) viability at 10 µM reading for CCC[C@H](NC(=O)[C@@H]1[C@H]2CCC[C@H]2CN1C(=O)[C@@H](NC(=O)[C@@H](NC(=O)c1cnccn1)C1CCCCC1)C(C)(C)C)C(=O)C(=O)NC1CC1 [Telaprevir (VX-950), Telaprevir] . 131

Provide A375 (Amelanotic Melanoma) viability at 10 µM reading for C=C(NC(=O)C(=C)NC(=O)c1csc(C2=N[C@@H]3c4csc(n4)[C@H]4NC(=O)c5csc(n5)[C@H]([C@](C)(O)[C@@H](C)O)NC(=O)[C@H]5CSC(=N5)/C(=C/C)NC(=O)[C@H]([C@@H](C)O)NC(=O)c5csc(n5)[C@]3(CC2)NC(=O)[C@H](C)NC(=O)C(=C)NC(=O)[C@H](C)NC(=O)[C@H]([C@@H](C)CC)N[C@@H]2C=Cc3c([C@H](C)O)cc(nc3[C@H]2O)C(=O)O[C@@H]4C)n1)C(N)=O [Thiostrepton] . 27.6

Provide A375 (Amelanotic Melanoma) viability at 10 µM reading for CCC1(C)CC(=O)NC(=O)C1 [Bemegride] . 62.7

Provide A375 (Amelanotic Melanoma) viability at 10 µM reading for CC(C)(C)C(=O)C(Oc1ccc(Cl)cc1)n1ccnc1 (centres unmarked) [Climbazole] . 70.6
